biological target: human HAQ STING isoform (hSTING HAQ) (Homo sapiens, UniProt Q86WV6, G230A/H232R/R293Q/R71H); construct: THP1 cells express the naturally occurring human HAQ STING isoform (hSTING HAQ); host or cells: THP1; assay: IFN-β mRNA level in THP1 cells (qPCR, STING agonist cellular activity); assay type: cell-based; settings: compound at 3.6 μM, 2 hrs, IFNβ expression normalized against GAPDH by the 2^-ΔΔCT method, DMSO = 1.0
Sequence (Q86WV6 whole entry R71H/G230A/H232R/R293Q, canonical isoform): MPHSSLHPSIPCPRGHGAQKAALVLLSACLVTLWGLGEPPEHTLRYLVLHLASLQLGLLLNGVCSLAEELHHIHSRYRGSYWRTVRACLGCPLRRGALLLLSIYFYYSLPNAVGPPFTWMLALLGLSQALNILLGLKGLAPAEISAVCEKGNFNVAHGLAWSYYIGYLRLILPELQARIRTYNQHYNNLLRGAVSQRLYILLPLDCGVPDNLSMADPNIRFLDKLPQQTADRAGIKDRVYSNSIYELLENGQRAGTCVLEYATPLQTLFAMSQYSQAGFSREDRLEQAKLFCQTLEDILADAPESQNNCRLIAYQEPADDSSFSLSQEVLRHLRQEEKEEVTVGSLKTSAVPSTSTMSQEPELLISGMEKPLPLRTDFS
Observable: Relative mRNA INFβ/GAPDH THP 1

Compound	Observable	Data Value
COc1cc(CN(Cc2cn3c4c(c(N5CCC(O)CC5)c(F)cc4c2=O)OCC3C)[C@H]2CCCN(c3ccc(N)nc3)C2)ccn1 (some centres unmarked) [Compound 31]	Relative mRNA INFβ/GAPDH THP 1	1162.4
COc1cc(CN(Cc2cn3c4c(c(F)c(F)cc4c2=O)OCC3C)[C@H]2CCCN(c3ccc(N4CCCC4=O)nc3)C2)ccn1 (some centres unmarked) [Compound 18]	Relative mRNA INFβ/GAPDH THP 1	4.8
N#Cc1cc(CN(Cc2cn3c4c(c(F)c(F)cc4c2=O)OCC3)[C@H]2CCCN(c3cnccn3)C2)ccn1 [Compound 89]	Relative mRNA INFβ/GAPDH THP 1	1.3
COc1cc(CN(Cc2cn3c4c(c(N5CCC6(CC5)CC(O)CO6)c(F)cc4c2=O)OCC3C)[C@H]2CCCN(c3ccc(N)nc3)C2)ccn1 (some centres unmarked) [Compound 44]	Relative mRNA INFβ/GAPDH THP 1	642.4
Cc1cc(CN(Cc2cn3c4c(c(F)c(F)cc4c2=O)OCC3C)[C@H]2CCCN(c3ccc(C(N)=O)nc3)C2)ccn1 (some centres unmarked) [Compound 13]	Relative mRNA INFβ/GAPDH THP 1	3.6

I: COc1cc(CN(Cc2cn3c4c(c(N5CCCCC5=O)c(F)cc4c2=O)OCC3C)[C@H]2CCCN(c3ccc(N)nc3)C2)ccn1 (some centres unmarked) [Compound 60]
II: COc1cc(CN(Cc2cn3c4c(c(N5CCN(C)CC5)c(F)cc4c2=O)OCC3C(C)C)[C@H]2CCCN(c3ccc(N)nc3)C2)ccn1 (some centres unmarked) [Compound 96]
Query: Return label of the item with the larger Relative mRNA INFβ/GAPDH THP 1. Candidates: I , II . Mark your answer with the label of the selected entry.
Result: II
(II: 451.1, I: 174.3)
